test system: rat myoblast cell line (L6 cells); type: cell-based
Could you please classify the records by Tox/L6 using these ranges: bottom: < 50 µM; middle: ≥ 50 µM and < 200 µM; top: ≥ 200 µM

Past entries and their recorded results:
compound: CC1=C(Cc2ccc([N+](=O)[O-])cc2)C(=O)c2cc(F)ccc2C1=O [A-a-12]
categoryLabel: top

compound: CC1=C(Cc2ccccc2C(F)(F)F)C(=O)c2cc(F)ccc2C1=O [A-a-2]
categoryLabel: middle

compound: CC1=C(Cc2cccc(C(F)(F)F)c2)C(=O)c2cc(F)ccc2C1=O [A-a-1]
categoryLabel: bottom

compound: CC1=C(Cc2cccs2)C(=O)c2ccccc2C1=O [A-b-28]
categoryLabel: bottom

compound: CC1=C(Cc2ccc([N+](=O)[O-])c(F)c2)C(=O)c2cc(F)ccc2C1=O [B-a-32]
categoryLabel: middle

compound: COc1cc(CC2=C(C)C(=O)c3ccc(F)cc3C2=O)cc(OC)c1 [B-a-35]
categoryLabel: top

Q: State the class of the compound shown: CC1=C(CC2CCCCC2)C(=O)c2ccccc2C1=O [A-b-29]
A: top

Q: State the class of the compound shown: COc1cc(CC2=C(C)C(=O)c3ccc(F)cc3C2=O)cc(OC)c1OC [A-a-27]
A: middle

Q: State the class of the compound shown: CC1=C(Cc2ccc(I)cc2)C(=O)c2cc(F)ccc2C1=O [A-a-13]
A: bottom

Q: State the class of the compound shown: COc1ccc(CC2=C(C)C(=O)c3ccc(F)cc3C2=O)c(OC)c1OC [A-a-25]
A: top

Q: State the class of the compound shown: CC1=C(Cc2ccc3c(c2)OCO3)C(=O)c2ccccc2C1=O [A-b-21]
A: middle

###

The compounds listed here are annotated with their % of Control.
tested on: P. berghei GFP ANKA malaria strain; experiment: Drug assay in vivo in P. berghei-infected mice; settings: parasitemia, p.o. 4 × 50 mg/kg, day 4
Report only the number, with the unit % understood.

compound: CC1=C(Cc2ccc(F)c(C(F)(F)F)c2)C(=O)c2ccccc2C1=O [A-b-9]
% of Control / %: 97.23
//
compound: CC1=C(Cc2c(F)c(F)c(F)c(F)c2F)C(=O)c2ccccc2C1=O [A-b-47]
% of Control / %: 113.36
//
compound: CC1=C(Cc2ccc(C(F)(F)F)cc2)C(=O)c2cc(F)ccc2C1=O [Cpnd 6-F-PD]
% of Control / %: 51.95

Alright, here's another compound for you.
Q: Recorded % of Control of CC1=C(Cc2ccc(C(F)(F)F)cc2)C(=O)c2ccc(F)cc2C1=O [Cpnd 7-F-PD] , please.
A: 110.87

###

assay: Chromatographic Hydrophobicity Index (CHI) by HPLC; format: physicochemical; conditions: Chromatographic Hydrophobicity Index, lipophilicity index
propertyMeasured: CHI
Lab note: jot the number down without any unit.

compoundStructureString: CC1=C(Cc2ccc(C(F)(F)F)cc2)C(=O)c2cc(F)ccc2C1=O
readoutNumber: 117

Alright, here's another molecule for you.
Q: Recorded CHI of COc1cc(CC2=C(C)C(=O)c3ccccc3C2=O)cc(OC)c1 , please.
A: 107

###

tested on: rat myoblast cell line (L6 cells); format: cell-based
Everything with Tox/L6 lower than 70 µM is -1; everything else, including exactly 70 µM, is 1.

Past entries and their recorded results:
compoundStructureString: COc1ccc(OC)c(CC2=C(C)C(=O)c3ccc(F)cc3C2=O)c1
categoryLabel: 1

compoundStructureString: CC1=C(Cc2ccc(C(F)(F)F)c(F)c2)C(=O)c2cc(F)ccc2C1=O
categoryLabel: 1

compoundStructureString: CC1=C(Cc2ccco2)C(=O)c2cc(F)ccc2C1=O
categoryLabel: -1

compoundStructureString: COc1ccc(CC2=C(C)C(=O)c3ccc(F)cc3C2=O)cc1OC
categoryLabel: -1

compoundStructureString: CC1=C(Cc2cccc(C#N)c2)C(=O)c2cc(F)ccc2C1=O
categoryLabel: -1

compoundStructureString: CC1=C(Cc2ccc3ncsc3c2)C(=O)c2ccccc2C1=O
categoryLabel: -1

compoundStructureString: COc1cccc(CC2=C(C)C(=O)c3ccc(F)cc3C2=O)c1
categoryLabel: 1

compoundStructureString: CC1=C(Cc2cccc(F)c2)C(=O)c2cc(F)ccc2C1=O
categoryLabel: -1

Shift focus to the following entry.
Q: Given the entry COc1ccc(CC2=C(C)C(=O)c3ccc(F)cc3C2=O)c(OC)c1 , answer whether its Tox/L6 meets or surpasses 70 µM.
A: 1
